Documented melting point across a set of molecules

Would you please look over these solved cases?
>>> df
                                   molecule    test_result
0  Cn1c2ccc(F)cc2c2nnc(SCc3cn(-c4ccc(S(N)(=O)=O)cc4)nn3)nc21 [Compound 6f]  244 to 246 °C
1  CCCn1c2ccc(F)cc2c2nnc(SCc3cn(-c4ccc(S(N)(=O)=O)cc4)nn3)nc21 [Compound 6h]  240 to 242 °C
2  CC(C)n1c2ccc(F)cc2c2nnc(SCc3cn(-c4ccc(S(N)(=O)=O)cc4)nn3)nc21 [Compound 6i]  235 to 237 °C

Now for a further molecule.
Requested read-out: melting point. Entry: CCn1c2ccc(Cl)cc2c2nnc(SCc3cn(-c4ccc(S(N)(=O)=O)cc4)nn3)nc21 [Compound 6l]
252 to 256 °C

###

pKi: −log10 of the molar value.
pKi, hCA II (Homo sapiens, UniProt P00918): measured values
value type: pKi

>>> df
                                  structure  value_type  test_result
0  CCCn1c2ccccc2c2nnc(SCc3cn(-c4ccc(S(N)(=O)=O)cc4)nn3)nc21         pKi         7.05
1  CCCn1c2ccc(F)cc2c2nnc(SCc3cn(-c4ccc(S(N)(=O)=O)cc4)nn3)nc21         pKi         6.17
2  CCCn1c2ccc(Cl)cc2c2nnc(SCc3cn(-c4ccc(S(N)(=O)=O)cc4)nn3)nc21         pKi         7.21

[P] C=CCn1c2ccc(F)cc2c2nnc(SCc3cn(-c4ccc(S(N)(=O)=O)cc4)nn3)nc21
[Q] Cn1c2ccc(Cl)cc2c2nnc(SCc3cn(-c4ccc(S(N)(=O)=O)cc4)nn3)nc21
Which entry has a larger number for pKi, P or Q ? Which one? Tell me its label.
P

[1] Cn1c2ccccc2c2nnc(SCc3cn(-c4ccc(S(N)(=O)=O)cc4)nn3)nc21
[2] C=CCn1c2ccccc2c2nnc(SCc3cn(-c4ccc(S(N)(=O)=O)cc4)nn3)nc21
[3] CC(C)n1c2ccc(Cl)cc2c2nnc(SCc3cn(-c4ccc(S(N)(=O)=O)cc4)nn3)nc21
// sort entries: pKi, high to low In plain terms: list the labels in the order you were asked to.
2, 1, 3

###

Ki, hCA I (Homo sapiens, UniProt P00915): measured values
value type: Ki (µM)

Would you please look over these solved cases?
>>> df
                                   molecule  test_result
0  CC(C)n1c2ccc(Cl)cc2c2nnc(SCc3cn(-c4ccc(S(N)(=O)=O)cc4)nn3)nc21 [Compound 6n]        0.572
1  CC(C)n1c2ccccc2c2nnc(SCc3cn(-c4ccc(S(N)(=O)=O)cc4)nn3)nc21 [Compound 6d]        0.315

[I] CCCn1c2ccc(Cl)cc2c2nnc(SCc3cn(-c4ccc(S(N)(=O)=O)cc4)nn3)nc21 [Compound 6m]
[II] C=CCn1c2ccc(Cl)cc2c2nnc(SCc3cn(-c4ccc(S(N)(=O)=O)cc4)nn3)nc21 [Compound 6o]
Identify the entry with the smaller Ki: I or II . Which one? Tell me its label.
II
(II: 0.694 µM, I: 6.51 µM)
